Assay: Single dose PK, rat
Assay type: in vivo
Details: in vivo; Rat IV 5 mg/kg single dose
readout: AUC(0-t) (ng·h/mL)
One number for each entry, in ng·h/mL.

Identify measured AUC(0-t) associated with N#Cc1cnc(Nc2cc(NCC3CNCCO3)c(C(F)(F)F)cn2)cn1 (stereo not shown) [SRA737] 1380

---

Assay: Phase 1 clinical trial, SRA737 monotherapy dose escalation
Assay type: in vivo, human
Details: human, in vivo, 1300 mg, AUC0-24
readout: AUC(0-t)
Answer shape: numeric part, then the unit.

Identify measured AUC(0-t) associated with N#Cc1cnc(Nc2cc(NCC3CNCCO3)c(C(F)(F)F)cn2)cn1 (stereo not shown) 29800 ng·h/mL
